All figures here come from patent US20240400689A1.

# System under test: T1, human CD276 protein (human, UniProt Q5ZPR3 29-534)
# T1 sequence (looked up): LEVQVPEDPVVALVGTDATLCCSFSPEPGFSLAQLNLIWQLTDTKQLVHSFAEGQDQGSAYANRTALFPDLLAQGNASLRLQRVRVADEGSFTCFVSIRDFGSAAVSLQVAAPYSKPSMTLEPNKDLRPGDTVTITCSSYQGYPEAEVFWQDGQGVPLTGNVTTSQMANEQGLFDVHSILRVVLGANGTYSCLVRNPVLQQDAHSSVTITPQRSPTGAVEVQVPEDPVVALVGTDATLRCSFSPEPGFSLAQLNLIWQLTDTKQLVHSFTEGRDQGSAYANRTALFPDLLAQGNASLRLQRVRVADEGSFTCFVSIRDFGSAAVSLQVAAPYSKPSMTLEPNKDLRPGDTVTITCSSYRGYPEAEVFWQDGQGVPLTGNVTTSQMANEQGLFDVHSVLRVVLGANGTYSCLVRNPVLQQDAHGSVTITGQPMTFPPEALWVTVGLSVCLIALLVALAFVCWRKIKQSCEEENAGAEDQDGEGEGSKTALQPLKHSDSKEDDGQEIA
# Test method notes: cell-based or functional assay
Listing: EC50 of antibody induced ADCC effect on SKOV3 of selected binders
Quick note: unit goes after the number.

Answered cases to consult:
Q: If you can, please state the reported EC50 of antibody induced ADCC effect on SKOV3 value of 10-G6-C4-B2 (human IgG1 chimeric antibody) (antibody, V domains shown, human IgG1 chimeric antibody of the mouse clone) VH: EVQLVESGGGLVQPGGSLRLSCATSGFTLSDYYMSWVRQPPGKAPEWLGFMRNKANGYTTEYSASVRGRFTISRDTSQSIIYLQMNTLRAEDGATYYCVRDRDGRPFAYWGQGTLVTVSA VL: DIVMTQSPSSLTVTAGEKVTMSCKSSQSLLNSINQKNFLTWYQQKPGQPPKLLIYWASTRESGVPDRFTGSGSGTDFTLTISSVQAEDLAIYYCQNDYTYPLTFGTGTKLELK .
A: 0.237 µg/mL

Q: If you can, please state the reported EC50 of antibody induced ADCC effect on SKOV3 value of 21-B3-B1-H5 (human IgG1 chimeric antibody) (antibody, V domains shown, human IgG1 chimeric antibody of the mouse clone) VH: QIQLVQSGPELKKPGETVKISCKASGYIFRNYGMNWVKQAPGKGLKWMGWINSYTGKPTYVDDFKGRFAFSLETSASTAYLQINNLKNEDMATYFCARDDGYWYTMDYWGQGTSVTVSS VL: DVVMTQTPLSLPVSLGDQASISCRSSQSLVHSNGHTYLHWYLQKPGQSPKLLIYKVSNRFSGVPDRFSGSGSGTDFTLKISRVEAEDLGVYFCSQSTHVPWTFGGGTKLEIK .
A: 0.648 µg/mL

Others:
Q: If you can, please state the reported EC50 of antibody induced ADCC effect on SKOV3 value of 16-G3-D10-C10 (human IgG1 chimeric antibody) (antibody, V domains shown, human IgG1 chimeric antibody of the mouse clone) VH: QIQLVQSGPELKKPGETVKISCKASGYTFRNYGMNWVKQGPGKDLKWMGWINPYTGEPTYIGDFKGRFAFSLETSANSAYLQINNLNNEDMATYFCARDDGYWYTMDYWGQGTSVTVSS VL: DVVMTQTPPSLPVSLGDQASIPCRSSQSLVHSNGITYLHWYLQKPGQSPKLLIYKVSNRFSGVPDRFSGSGSGTDFTLKISRVEAEDLGVYFCSQSTHVPWTFGGGTKLEIK .
A: 0.0419 µg/mL
